Tested System: HLA-A*1101 (human)
Readout Kind: binding affinity ratio (IC50 of standard peptide / IC50 of test peptide)

| Binder | Assay Result |
| --- | --- |
| DIEITCVYCK (modifications not checked) [HPV18 E6 27 …] | 0.0021 |
| MLIQPPKLR (modifications not checked) [HPV18 E1 312 …] | 0.0014 |
| QMNMSQWIR (modifications not checked) [HPV18 E1 426 …] | 0.0023 |
| NSNAAAFLK (modifications not checked) [HPV18 E1 393 …] | 0.37 |
| LIRCLRCQK (modifications not checked) [HPV18 E6 102 …] | 0.0012 |
| CIDFYSRIR (modifications not checked) [HPV18 E6 68 …] | 0.0001 |
| LVRNFKSDK (modifications not checked) [HPV18 E1 229 …] | 0.0002 |
| DSVYGDTLEK (modifications not checked) [HPV18 E6 83 …] | 0.0051 |
